Overview of recorded log10 of TGI for various compounds
# Tested on: HCT-116 colon
# ASSAY_NAME: NCI tumour cell line growth inhibition, 48 h
MEASUREMENT_NAME: log10 of TGI (log10 of the value in µM)

[[record]]
compound = "COc1ccc(/C(C)=C(\\c2ccc(OCCN3CCCCCC3)cc2)c2ccc(OC(=O)C3CCCCC3)cc2)cc1"
measurement_name = "log10 of TGI"
measured_value = 0.39

[[record]]
compound = "S=c1[nH]c2ccc(Br)cc2c(=S)s1"
measurement_name = "log10 of TGI"
measured_value = 1.72

[[record]]
compound = "CC1(C)CN=C(NN=C(/C=C/c2ccc(C(F)(F)F)cc2)/C=C/c2ccc(C(F)(F)F)cc2)NC1"
measurement_name = "log10 of TGI"
measured_value = 0.44

[[record]]
compound = "C=CC(=O)N1CN(C(=O)C=C)CN(C(=O)C=C)C1"
measurement_name = "log10 of TGI"
measured_value = 0.52

[[record]]
compound = "Nc1nc(N)c(N=O)c(Nc2ccc(Br)cc2)n1"
measurement_name = "log10 of TGI"
measured_value = 1.58

[[record]]
compound = "Oc1[nH]c2ccc(Br)cc2c1N=NC(=S)Nc1ccc(F)cc1"
measurement_name = "log10 of TGI"
measured_value = 1.26

[[record]]
compound = "O=C(Nc1cc(Cl)ccc1O)c1ccc(Nc2ccnc(C(F)(F)F)c2)cc1"
measurement_name = "log10 of TGI"
measured_value = 1.78

[[record]]
compound = "C/C1=C\\CC[C@@]2(C)O[C@@H]2C[C@@H](C2(C)CO2)CC/C(C)=C/CC1 (some centres not stated)"
measurement_name = "log10 of TGI"
measured_value = 1.66

[[record]]
compound = "COc1ccc(-c2nccn2-c2ccc(OC)cc2)cc1"
measurement_name = "log10 of TGI"
measured_value = 1.65

[[record]]
compound = "Nc1ccccc1O.O.O=C(O)C1[O][Sb][O]C1C(=O)O (configuration not stated)"
measurement_name = "log10 of TGI"
measured_value = 1.60

[[record]]
compound = "CC(=O)N1CCN(c2ccc(OCC3COC(Cn4ccnc4)(c4ccc(Cl)cc4Cl)O3)cc2)CC1 (configuration not stated)"
measurement_name = "log10 of TGI"
measured_value = 1.88

[[record]]
compound = "CC(C)=C1CCC(CN(C)C)C1=O (configuration not stated)"
measurement_name = "log10 of TGI"
measured_value = 1.48

[[record]]
compound = "O=C(O)c1cc(-c2ccc3c(O)c(O)ccc3c2)ccc1O"
measurement_name = "log10 of TGI"
measured_value = 1.48

[[record]]
compound = "COc1cc2c(cc1O)CCN[C@]21CS[C@@H]2c3c(OC(C)=O)c(C)c4c(c3[C@H](COC1=O)N1[C@@H]2[C@H]2c3c(cc(C)c(OC)c3O)C[C@@H]([C@@H]1O)N2C)OCO4"
measurement_name = "log10 of TGI"
measured_value = 0.47

[[record]]
compound = "O=C(/C=C/c1ccccc1)c1ccccc1"
measurement_name = "log10 of TGI"
measured_value = 0.66

[[record]]
compound = "CCC1CN2CCc3cc(OC)c(OC)cc3C2CC1CC1c2cc(OC)c(OC)cc2CCN1C(=O)C1CCCN1 (configuration not stated)"
measurement_name = "log10 of TGI"
measured_value = 1.74

[[record]]
compound = "Cc1cc2c([N+](=O)[O-])cc3c(c2o1)C(=O)C=CC3=O"
measurement_name = "log10 of TGI"
measured_value = 1.02

[[record]]
compound = "COc1cc(/C=C\\c2cc(OC)c(OC)c(OC)c2)cc(N/C=C\\C(=O)c2c[nH]c3ccccc23)c1OC"
measurement_name = "log10 of TGI"
measured_value = 0.54

[[record]]
compound = "C[C@@H]1S[C@H](c2ccccc2F)N2Cc3ccccc3N=C12"
measurement_name = "log10 of TGI"
measured_value = 1.63

[[record]]
compound = "CSC(=Nc1ccccc1)N(c1ccccc1)c1nc(=[N+](C)C)ss1"
measurement_name = "log10 of TGI"
measured_value = 1.08

